- TARGET ENTITY: Glutathione peroxidase 1 (Homo sapiens)
- ASSAY SUMMARY: Primary qHTS Assay for Inhibitors of Recombinant Selenoprotein Glutathione Peroxidase 1 (GPX1) (AID 1845191); further: nearly all actives have a fitted effect of over 65% in size
- RUN CONDITIONS: recombinant GPX1, GR-coupled NADPH fluorescence, 15 min; series mostly up to 48.8 µM
- Description: Assay Provider: Elias S.J. Arner MD PhD. Department of Medical Biochemistry and Biophysics Karolinska Institutet, Solna, Stockholm, Sweden […] 5; Detection; Fluorescence; ViewLux microplate reader, excitation 340 nm and emission 450 nm. […] 7; Detection; Fluorescence; ViewLux microplate reader, excitation 340 nm and emission 450 nm. […] 5. Initial fluorescence readout (t=0) at 340/450 nm was measured using a ViewLux multimodal detector (PerkinElmer, Waltham, MA). […]
Inconclusive results are not listed. Activity calls are given as the source filed them. The call rests on the fitted dose curve; in most records, active means well fitted inhibition curve with a large enough effect; inconclusive means small, poorly fitted or top-dose-only effect; inactive means flat fitted curve, though single readings scatter.
ENDPOINT LABEL: outcome

Below, 8 compounds whose answers are already recorded.
CCCCN1C[C@H](O)[C@@H](O)[C@H](O)[C@H]1CO    inactive
COc1cc([C@H]2Oc3cc([C@H]4Oc5cc(O)cc(O)c5C(=O)[C@@H]4O)ccc3O[C@@H]2CO)ccc1O    inactive
CC(C(=O)O)c1cccc(Oc2ccccc2)c1 (stereo not drawn)    inactive
c1ccc(-c2nc[nH]c2-c2ccccc2)cc1    inactive
O=c1[nH]c(=O)n([C@H]2C[C@H](O)[C@@H](CO)O2)cc1F    inactive
CCCN(CCC)S(=O)(=O)c1ccc(C(=O)O)cc1    inactive
Nc1nc(Cl)nc2c1ncn2[C@@H]1O[C@H](CO)[C@@H](O)[C@@H]1F    inactive
CCN(CC)CCOc1ccccc1C(=O)CCc1ccccc1    inactive

Give outcome for each of the items listed below.
1. CCOc1cc(OCC)c(C(=O)CCC(=O)O)cc1OCC
2. OCCOCCN1CCN(C2=Nc3ccccc3Sc3ccccc32)CC1
3. CCc1ccc(C(=O)C(C)CN2CCCCC2)cc1 (stereo not drawn)

["inactive", "inactive", "inactive"]

====

- ASSAY SUMMARY: P-glycoprotein substrates identified in KB-8-5-11 adenocarcinoma cell line, qHTS therapeutic library screen (AID 1346987); further: nearly all actives have a fitted effect of over 65% in size
- RUN CONDITIONS: KB-8-5-11 (P-gp overexpressing) viability, CellTiter-Glo, 72 h; series mostly up to 44.5 µM
Records with an inconclusive call do not appear. Activity calls are given as the source filed them. Calls come from the whole dose curve; as a rule, active = well fitted inhibition curve with a large enough effect; inconclusive = small, poorly fitted or top-dose-only effect; inactive = flat fitted curve, though single readings scatter.
Form entry, call: pick from active, inactive

Could you please tell me the result logged for `O=C(O)c1ccc(S(=O)(=O)N(Cl)Cl)cc1` in this assay?
inactive

Could you please tell me the result logged for `CCCCCCCCOc1ccc(C(=O)c2ccccc2)c(O)c1` in this assay?
inactive

Could you please tell me the result logged for `CCN1/C(=C/C=C/c2sc3ccccc3[n+]2CC)Sc2ccccc21` in this assay?
active

Could you please tell me the result logged for `N=C(N)N1CCc2ccccc2C1` in this assay?
inactive

Could you please tell me the result logged for `NC(N)=NN=C(/C=C/c1ccc([N+](=O)[O-])o1)/C=C/c1ccc([N+](=O)[O-])o1` in this assay?
active

Could you please tell me the result logged for CC(C)CCCC(C)N (stereo unspecified) in this assay?
inactive

====

- System: CP265
- ASSAY SUMMARY: qHTS profiling for inhibitors of Plasmodium falciparum proliferation (AID 504749); further: nearly all actives have a fitted effect of over 60% in size
- RUN CONDITIONS: P. falciparum in erythrocytes, SYBR Green DNA, 72 h; series mostly up to 28.7 µM
Inconclusive results are not listed. Activity calls are given as the source filed them. Calls come from the whole dose curve; as a rule, active = well fitted inhibition curve with a large enough effect; inconclusive = small, poorly fitted or top-dose-only effect; inactive = flat fitted curve, though single readings scatter.
Form entry, call: pick from yes (active), no (inactive)

Field: example entries. Status: answers known.
CCC1Nc2cc(Cl)c(S(N)(=O)=O)cc2S(=O)(=O)N1 (stereo not drawn)    no
CCN(CC)CCNc1ccc(CO)c2sc3ccccc3c(=O)c12    yes

Could you please tell me the result logged for `CCCCCCCCCCCCCCCC(=O)O` in this assay?
no

====

Please go through the items and note down their max response.
- TARGET ENTITY: Peroxisome proliferator-activated receptor alpha (Homo sapiens)
- ASSAY SUMMARY: qHTS assay for small molecule agonists of the peroxisome proliferator-activated receptor alpha (PPARalpha) signaling pathway (AID 651778); further: % of control where 0% means no effect
- RUN CONDITIONS: PathHunter PPARalpha complementation, chemiluminescence, 6 h; active compounds read high
Numbers only, in %.

Below, 2 compounds whose answers are already recorded.
CCCCCCCCCCCCCC(=O)OC(C)C    -1.44
CCCCCCCCCCCCCCCCO    0.0651

Give max response for each of the items listed below.
1. OC[C@H]1O[C@@H]2O[C@H]3[C@H](O)[C@@H](O)[C@@H](O[C@H]4[C@H](O)[C@@H](O)[C@@H](O[C@H]5[C@H](O)[C@@H](O)[C@@H](O[C@H]6[C@H](O)[C@@H](O)[C@@H](O[C@H]7[C@H](O)[C@@H](O)[C@@H](O[C@H]8[C@H](O)[C@@H](O)[C@@H](O[C@H]1[C@H](O)[C@H]2O)O[C@@H]8CO)O[C@@H]7CO)O[C@@H]6CO)O[C@@H]5CO)O[C@@H]4CO)O[C@@H]3CO
2. O=C(O)c1ccc(S(=O)(=O)N(Cl)Cl)cc1

[-4.97, 7.46]

Give max response for each of the items listed below.
1. CCCCCCCC/C=C\CCCCCCCCN
2. C=C[C@@]1(C)CC(=O)[C@]2(O)[C@@]3(C)[C@@H](O)CCC(C)(C)[C@@H]3[C@H](O)[C@H](OC(C)=O)[C@@]2(C)O1
3. NC(=O)c1ccccc1O
4. COc1ccc(C(Cl)=C(c2ccc(OC)cc2)c2ccc(OC)cc2)cc1
5. CC(C)(C)CC(C)(C)c1ccc(O)c(-n2nc3ccccc3n2)c1
6. C#C[C@]1(O)CC[C@H]2[C@@H]3CCC4=Cc5oncc5C[C@]4(C)[C@H]3CC[C@@]21C
7. CC1(C)OC[C@@H]2O[C@@]3(C(=O)O)OC(C)(C)O[C@H]3[C@@H]2O1

0.202
0.227
4.04
-4.66
12.6
-4.33
-1.9

====

- ASSAY SUMMARY: Primary qHTS for inhibitors of La Crosse Virus (LACV) - induced cell death in SH-SY5Y cells (AID 1508616);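 further: top concentration of the series differs between compounds; 0% = infected DMSO wells and 100% = uninfected DMSO wells; higher means more rescue of cells from virus-induced death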
- RUN CONDITIONS: SH-SY5Y LACV cytopathicity rescue, ATP luminescence, 6 d; series mostly up to 4.29 µM
- From the text: Assay Provider: Karin Peterson Ph.D. National Institute of Allergy and Infection Diseases, National Institute of Health […] 8. Detection; Luminescence; View […] 6. Dispense 24 microL/well of ATPLite 1step Luminescence assay system (PerkinElmer). […] 8. Read luminescence signal (Viewlux plate reader, PerkinElmer). […]
Records with an inconclusive call do not appear. Active and inactive are the calls of the source. Calls follow the shape of the dose curve; as a rule, active = well fitted inhibition curve with a large enough effect; inconclusive = small, poorly fitted or top-dose-only effect; inactive = no such curve, though single readings can be large or run the other way.
ENDPOINT LABEL: outcome

Below, 4 compounds whose answers are already recorded.
CC(CNC1CCCCC1)OC(=O)c1ccccc1 (stereo unspecified)    inactive
CC(=O)Nc1ccc(OC(=O)c2ccccc2OC(C)=O)cc1    inactive
OCCOCCN1CCN(C2=Nc3ccccc3Sc3ccccc32)CC1    inactive
CCCCc1cc2ccccc2c(OCCN(C)C)n1    inactive

Give outcome for each of the items listed below.
1. O=C(Nc1ncc([N+](=O)[O-])s1)c1cccs1
2. CCOC(=O)[C@H](CCc1ccccc1)N[C@@H](C)C(=O)N1[C@H](C(=O)O)C[C@@H]2CCC[C@@H]21

inactive
inactive

====

- ASSAY SUMMARY: MultiTox-Fluor Cytotoxicity Assay - LYMP1-003 - Dead Cells (AID 961);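 further: cells exposed to compound for 16 h at 37 °C; nearly all actives have a fitted effect of over 70% in size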
- RUN CONDITIONS: LYMP1-003 lymphoblastoid cells, dead-cell protease fluorescence; series mostly up to 92.2 µM
Calls of active or inactive are those of the source. Calls follow the shape of the dose curve; as a rule, active = well fitted cell-killing curve with a large enough effect; inconclusive = small, poorly fitted or top-dose-only effect, or effect the other way; inactive = flat fitted curve, though single readings scatter.
Form entry, call: pick from YES = active, NO = inactive

Field: example entries. Status: answers known.
OC[C@H]1O[C@@H]2O[C@H]3[C@H](O)[C@@H](O)[C@@H](O[C@H]4[C@H](O)[C@@H](O)[C@@H](O[C@H]5[C@H](O)[C@@H](O)[C@@H](O[C@H]6[C@H](O)[C@@H](O)[C@@H](O[C@H]7[C@H](O)[C@@H](O)[C@@H](O[C@H]8[C@H](O)[C@@H](O)[C@@H](O[C@H]1[C@H](O)[C@H]2O)O[C@@H]8CO)O[C@@H]7CO)O[C@@H]6CO)O[C@@H]5CO)O[C@@H]4CO)O[C@@H]3CO    NO
COc1ccc(C(Cl)=C(c2ccc(OC)cc2)c2ccc(OC)cc2)cc1    NO
NC(=O)c1ccccc1O    NO
CCCCC(CC)COC(=O)c1ccc(N(C)C)cc1 (stereo not given)    NO
CCOc1ccccc1C(N)=O    NO

Could you please tell me the result logged for `O=C(O)c1ccc(S(=O)(=O)N(Cl)Cl)cc1` in this assay?
NO

Could you please tell me the result logged for `COc1cc([C@H]2Oc3cc([C@H]4Oc5cc(O)cc(O)c5C(=O)[C@@H]4O)ccc3O[C@@H]2CO)ccc1O` in this assay?
NO

Could you please tell me the result logged for `Oc1c(Cl)cc(Cl)c(Cl)c1Cc1c(O)c(Cl)cc(Cl)c1Cl` in this assay?
YES

Could you please tell me the result logged for `C/C=C/c1ccc(O)c(OC)c1` in this assay?
NO

Could you please tell me the result logged for `NCCNc1cccc2ccccc12` in this assay?
NO
